# Species on record: Rattus norvegicus
# Assay Summary: Open TG-GATES - Regimen: Daily Repeat
# Format: toxicity, organism-based, Sprague-Dawley
# Parameters: regimen Daily Repeat, gender Male, age 6 weeks
# Protocol Conditions: in vivo, po, 0 mg/kg, 72 h, tissue Blood, route gavage, dose level Control, time 3 day
Property Name: APTT (s)
State just the number; it will be interpreted in s.

1) O=C1CN(/N=C/c2ccc(-c3ccc([N+](=O)[O-])cc3)o2)C(O)=N1 [DANTROLENE] : 16.8
2) COc1ccc(Cl)cc1C(=O)NCCc1ccc(S(=O)(=O)NC(=O)NC2CCCCC2)cc1 [GLYBURIDE] : 19.1
3) C=CCO [ALLYL ALCOHOL] : 19.1
4) O=P1(N(CCCl)CCCl)NCCCO1 (stereo not given) [CYCLOPHOSPHAMIDE ANHYDROUS] : 21.5

# ---- query molecule ----
Fill blank: measured APTT of the molecule Cc1cccc(Nc2cc(Cl)nc(SCC(=O)O)n2)c1C [PIRINIXIC ACID] is ____.
16.4
